Assay: Dissociation constant, pKa of the compound
Format: physicochemical
observable: pKa

[a] N#CCC(=O)N1CCC[C@@H](n2nnc3cnc4[nH]ccc4c32)C1
[b] N#CCC(=O)N1CCC[C@@H](n2cnc3cnc4[nH]ccc4c32)C1
Prompt: Between a and b , whose measured pKa reads higher? Kindly give the label for the entry you pick.
Response: b

###

Test: Lipophilicity, log D of the compound at pH 7.2
Type: physicochemical
Details: buffer
observable: logD

| compound | logD |
| --- | --- |
| CC(C)(C)OC(=O)N[C@H]1CC[C@H](n2nnc3cnc4[nH]ccc4c32)CC1 | 3.58 |
| N[C@H]1CC[C@H](n2nnc3cnc4[nH]ccc4c32)CC1 | -0.24 |
| CC1(n2nnc3cnc4[nH]ccc4c32)CCN(S(C)(=O)=O)CC1 | 1.5 |
| CC(C)CC(=O)N[C@H]1CC[C@H](n2nnc3cnc4[nH]ccc4c32)CC1 | 2.7 |
| CC(C)(C)OC(=O)N[C@@H]1CC[C@@H](n2nnc3cnc4[nH]ccc4c32)C1 | 3.53 |

[P] COC(=O)N[C@H]1CC[C@H](n2nnc3cnc4[nH]ccc4c32)CC1
[Q] F[C@@H]1CNCC[C@H]1n1nnc2cnc3[nH]ccc3c21 (racemic)
Prompt: Between the entries labelled P and Q , which has a larger logD value on record? Answer with the label corresponding to your selection.
Response: P

###

Experiment: Clearance in Sprague-Dawley rat at 1 mg/kg, iv
Format: ADME, organism-based
Parameters: dose 1 mg/kg, route intravenous
Conditions: in vivo
observable: clearance (mL/min/kg)

A selection of reference data follows.
| chemicalString | clearance, mL/min/kg |
| --- | --- |
| N#CCCN[C@H]1CC[C@H](n2nnc3cnc4[nH]ccc4c32)CC1 | 88 |
| CC1(n2nnc3cnc4[nH]ccc4c32)CCN(S(C)(=O)=O)CC1 | 211 |
| N#CCCN1CCC(n2nnc3cnc4[nH]ccc4c32)CC1 | 44 |

[A] N#CCC(=O)N1CCC[C@@H](n2nnc3cnc4[nH]ccc4c32)C1
[B] CS(=O)(=O)N1CCC(n2nnc3cnc4[nH]ccc4c32)CC1
Prompt: Lab log: flag the item ( A or B ) with the smaller clearance figure. Answer format: the label of the selected item.
Response: B
(B: 16 mL/min/kg, A: 110 mL/min/kg)

###

Test: Apparent permeability from apical to basolateral side in MDCK cells
Format: ADME, cell-based, Canis lupus familiaris
Details: dog
observable: Papp A→B (×10⁻⁶ cm/s)

Known Papp A→B results, listed for orientation:
| chemicalString | unitText | observedResult |
| --- | --- | --- |
| N#CCCN[C@H]1CC[C@H](n2nnc3cnc4[nH]ccc4c32)CC1 | ×10⁻⁶ cm/s | 7.2 |
| N#CCCN1CCC(n2nnc3cnc4[nH]ccc4c32)CC1 | ×10⁻⁶ cm/s | 17 |
| N#CCC(=O)N1CCC[C@@H](n2cnc3cnc4[nH]ccc4c32)C1 | ×10⁻⁶ cm/s | 0.3 |
| CS(=O)(=O)N1CCC(n2nnc3cnc4[nH]ccc4c32)CC1 | ×10⁻⁶ cm/s | 13 |

[a] CC1(n2nnc3cnc4[nH]ccc4c32)CCN(S(C)(=O)=O)CC1
[b] N#CCC(=O)N1CCC[C@@H](n2nnc3cnc4[nH]ccc4c32)C1
Prompt: Please choose the item with the lower Papp A→B value from this pair: a and b Response format: the label of the selected entry.
Response: b
